- Test system: MDA-MB-435 melanoma
- Experiment notes: NCI-60 one-dose screen, 48 h
- Condition context: 10 µM unless noted
This is part of a sample that, as a whole, favours compounds with a hit. Of some 83,000 tested, about 20% had one in any assay. Activity calls are given as the source filed them. How the source made its calls: active means growth percent below 10; inactive means the rest.
Hello, when you answer, please use one of the following outcomes: 1 for active, -1 for inactive

Compound	Label class
COc1cc(NC(N)=NCCC(C)(C)Oc2ccc(C(F)(F)F)cc2)ncc1C#N	1
COc1ccc(/C=C2/C(=O)NC(SCC(=O)N3CCN(c4cc5c(cc4F)c(=O)c(C(=O)O)cn5C4CC4)CC3)=NC2N)cc1OC (stereo not given)	-1
COc1ccc(C(=O)n2nc(/C=C/c3ccc(O)c(OC)c3)cc2/C=C/c2ccc(O)c(OC)c2)cc1	1

Please state the recorded outcome for this compound: Brc1cccc(-c2cc(-c3ccc4nccnc4c3)[nH]n2)c1 1

Please state the recorded outcome for this compound: COc1cccc(-c2nc3sccn3c2-c2ccnc(NCCCNS(=O)(=O)c3ccc(C(F)(F)F)cc3)c2)c1 -1
